test: Quantitative High-Throughput drug screen in 47 multiple myeloma cell lines against the NCATS MIPE library collection: MMM1_PLB cell viability assay (AID 1918976); conditions: MMM1 myeloma cells viability, CellTiter-Glo, 48 h; series mostly up to 45.8 µM; further: potency means the concentration at half of the fitted maximal effect; nearly all actives have a fitted effect of over 35% in size
Records with an inconclusive call do not appear. Activity calls are given as the source filed them. The call rests on the fitted dose curve; in most records, active means well fitted cell-killing curve with a large enough effect; inconclusive means small, poorly fitted or top-dose-only effect, or effect the other way; inactive means no such curve, though single readings can be large or run the other way.
Reported Potency values for a set of compounds

Examples with their reported Potency follow.
Please look at this compound and report its Potency: `CCc1ccc(C(=O)Nc2cc(CN3CCN(C)CC3)cc(C(F)(F)F)c2)cc1C#Cc1cnc2ccnn2c1`
23.5 µM (active)

Please look at this compound and report its Potency: `COc1cccc2c1C(=O)c1c(O)c3c(c(O)c1C2=O)C[C@@](O)(C(C)=O)C[C@H]3O[C@H]1C[C@H](N)[C@H](O)[C@H](C)O1`
0.166 µM (active)

Consider the record given below.
Please look at this compound and report its Potency: `O=c1[nH]c(=O)n([C@H]2C[C@@H](O)[C@@H](CO)O2)cc1F`
18.7 µM (active)

----------
assay: Quantitative High-Throughput drug screen in 47 multiple myeloma cell lines against the NCATS MIPE library collection: ARP1_JJKsccF8 cell viability assay (AID 1918928; further: nearly all actives have a fitted effect of over 40% in size;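 on viability: 100% = DMSO only wells and 0% = medium only wells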); details: ARP1 myeloma cells viability, CellTiter-Glo ATP, 48 h; series mostly up to 45.8 µM
Records with an inconclusive call do not appear. Active and inactive are the calls of the source. The call rests on the fitted dose curve; in most records, active means well fitted cell-killing curve with a large enough effect; inconclusive means small, poorly fitted or top-dose-only effect, or effect the other way; inactive means no such curve, though single readings can be large or run the other way.
I would appreciate it if you answered using one of these outcomes: Yes for active, No for inactive

For this molecule, state the assay outcome: `CC1(C)[C@H](O[C@H]2O[C@H](C(=O)O)[C@@H](O)[C@H](O)[C@H]2O[C@@H]2O[C@H](C(=O)O)[C@@H](O)[C@H](O)[C@H]2O)CC[C@@]2(C)[C@H]1CC[C@]1(C)[C@H]2C(=O)C=C2[C@H]3C[C@@](C)(C(=O)O)CC[C@]3(C)CC[C@]21C`
No

For this molecule, state the assay outcome: `C[C@H](NC(=O)Cc1cc(F)cc(F)c1)C(=O)N[C@H](C(=O)OC(C)(C)C)c1ccccc1`
No

Next:
For this molecule, state the assay outcome: `O=C1NCCc2[nH]c(-c3ccncc3)cc21`
Yes

For this molecule, state the assay outcome: `COc1ccc(C[C@@H](C)[C@@H](C)Cc2ccc(OC)c(OC)c2)cc1OC`
Yes

For this molecule, state the assay outcome: `N#Cc1ccc(COC[C@H]2O[C@@H](n3c(NCc4ccc(Cl)c(Cl)c4)nc4c(N)ncnc43)[C@@H](O)[C@@H]2O)cc1`
Yes

For this molecule, state the assay outcome: CC(=O)C1=C(O)C=C2Oc3c(C(C)=O)c(O)c(C)c(O)c3C2(C)C1=O (stereo not drawn)
No

For this molecule, state the assay outcome: `C[C@H](NC(=O)C(C#N)=Cc1cccc(Br)n1)c1ccccc1`
Yes

For this molecule, state the assay outcome: `CN[C@H]1[C@@H](O)[C@@H]2O[C@@H]3O[C@H](C)CC(=O)[C@]3(O)O[C@@H]2[C@@H](NC)[C@H]1O`
Yes

For this molecule, state the assay outcome: `Cn1cc(CNCC2CCN(c3ncc(C(=O)NO)cn3)CC2)c2ccccc21`
Yes

For this molecule, state the assay outcome: `CCOc1cc2c(c(F)c1OCC)C(=N)N(CC(=O)c1cc(N3CCOCC3)c(OC)c(C(C)(C)C)c1)C2`
Yes

For this molecule, state the assay outcome: `COc1cc(OC)c(C=CS(=O)(=O)Cc2ccc(OC)c(NCC(=O)O)c2)c(OC)c1`
Yes

For this molecule, state the assay outcome: `O=C(C=Cc1ccc(CN(CCO)CCc2c[nH]c3ccccc23)cc1)NO`
Yes

For this molecule, state the assay outcome: CC(C)C[C@H](NC(=O)CNC(=O)c1cc(Cl)ccc1Cl)B1OC(=O)CC(CC(=O)O)(C(=O)O)O1 (stereo partly drawn)
Yes

For this molecule, state the assay outcome: CN1[C@H]2CC(OC(=O)[C@@H](CO)c3ccccc3)C[C@H]1[C@H]1O[C@H]12 (stereo partly drawn)
No

For this molecule, state the assay outcome: `CCC(C=C[C@@H]1OC(=O)C=C[C@H]1C)=C[C@H](C)CC=CC(C)=C[C@@H](C)C(=O)[C@@H](C)[C@H](O)[C@@H](C)CC(C)=CC(=O)O`
Yes

----------
assay: Primary qHTS for inhibitors of nuclear receptor binding SET domain protein 2 (NSD2) in an RCH-ACV wild type WT cells (2C) (AID 1645877); conditions: RCH-ACV (leukaemia line) NSD2 WT (2C) viability, CellTiter-Glo, 72 h; series mostly up to 44.9 µM; further: nearly all actives have a fitted effect of over 70% in size
Inconclusive results are not listed. Activity calls are given as the source filed them. The call rests on the fitted dose curve; in most records, active means well fitted inhibition curve with a large enough effect; inconclusive means small, poorly fitted or top-dose-only effect; inactive means no such curve, though single readings can be large or run the other way.
I would appreciate it if you answered using one of these outcomes: Y for active, N for inactive

Completed entries (count: 5):
For this compound, state the assay outcome: `COc1ccc(S(=O)(=O)Nc2cccnc2Nc2ccc(O)cc2)cc1`
Y

For this compound, state the assay outcome: `CCCCCCCCc1ccc(CCC(N)(CO)CO)cc1`
Y

For this compound, state the assay outcome: `CN(C)c1ccc2cc(C(=O)N[C@@H](CCCN=C(N)CCl)C(=O)NCc3ccccc3)ccc2c1`
N

For this compound, state the assay outcome: `COc1cc(C[C@@H](CO)[C@H](CO)Cc2ccc(O)c(OC)c2)ccc1O`
N

For this compound, state the assay outcome: `CC(=O)O[C@H]1C[C@@H]2CC[C@H]3[C@H]4C[C@H]([N+]5(C)CCCCC5)[C@@H](OC(C)=O)[C@@]4(C)CC[C@@H]3[C@@]2(C)C[C@H]1[N+]1(C)CCCCC1`
N

Next:
For this compound, state the assay outcome: COc1ccc2c(c1OC)C(=O)OC2[C@H]1c2c(cc3c(c2OC)OCO3)CCN1C (some centres undefined)
Y

For this compound, state the assay outcome: `c1coc(CNc2ncnc3nc[nH]c23)c1`
N

For this compound, state the assay outcome: `CC(=O)OC[C@@H]1O[C@@H](n2ccc(=O)[nH]c2=O)[C@H](OC(C)=O)[C@H]1OC(C)=O`
N

For this compound, state the assay outcome: O=C1CSC(=O)N1C(CCc1ccncc1)COc1ccc(-c2cccc([N+](=O)[O-])c2)cc1 (centres undefined)
Y

----------
test system: KB-3-1; experiment: Cytotoxic Profiling of Annotated Libraries Using Quantitative High-Throughput Screening (AID 1296008); conditions: Five cell lines viability, CellTiter-Glo ATP luminescence, 48-72 h; hits give low values; further: on the % scale 0 is the no-effect control and ±100 the full control effect; nearly all actives have a fitted effect of over 60% in size
Records with an inconclusive call do not appear.
Readout Label: max response (%)
Kindly answer with a numeric value in %, unit omitted.

Tell me its max response on KB-3-1: `Cc1cnc(NC(=O)Nc2cc(Br)c(C)cc2OC[C@@H]2CNCCO2)cn1`
-6.69

Tell me its max response on KB-3-1: `NC(=O)c1ncn([C@@H]2O[C@H](CO)[C@@H](O)[C@@H]2O)c1N`
1.9

Tell me its max response on KB-3-1: `C=CC1=C(C(=O)O)N2C(=O)[C@@H](NC(=O)C(=NO)c3csc(N)n3)[C@H]2SC1`
4.36

Tell me its max response on KB-3-1: `C=C1C(=CC=C2CCC[C@]3(C)[C@@H]([C@H](C)CCCC(C)(C)O)CC[C@@H]23)C[C@@H](O)C[C@@H]1O`
-11.2

Tell me its max response on KB-3-1: `C[C@H](CCC(=O)O)[C@H]1CC[C@H]2[C@@H]3[C@H](O)C[C@@H]4C[C@H](O)CC[C@]4(C)[C@@H]3CC[C@]12C`
1.89

Tell me its max response on KB-3-1: `CCc1nc(-c2cccc(C)c2)c(-c2ccnc(NC(=O)c3ccccc3)c2)s1`
-16.2

Tell me its max response on KB-3-1: `O=[N+]([O-])c1cn2c(n1)OC[C@@H](OCc1ccc(OC(F)(F)F)cc1)C2`
-6.53

Tell me its max response on KB-3-1: `Oc1cc(-c2nc(-c3ccccc3)[nH]c2-c2ccncc2)ccc1Cl`
-18.3

Tell me its max response on KB-3-1: `COC(=O)[C@H](CCCN=C(N)N)NS(=O)(=O)c1ccc(C)cc1`
-0.67

Tell me its max response on KB-3-1: `Cc1onc(-c2ccccc2)c1C(=O)N[C@@H]1C(=O)N2[C@@H](C(=O)O)C(C)(C)S[C@@H]12`
3.95

Next:
Tell me its max response on KB-3-1: `O=C(O)C(=O)Nc1cccc(C2=NN=N[N]2)c1`
7.57

Tell me its max response on KB-3-1: `CN[C@H](CC(C)C)C(=O)N[C@H]1C(=O)N[C@@H](CC(N)=O)C(=O)N[C@@H]2C(=O)N[C@H]3C(=O)N[C@H](C(=O)N[C@H](C(=O)O)c4cc(O)cc(O)c4-c4cc3ccc4O)[C@H](O)c3ccc(c(Cl)c3)Oc3cc2cc(c3O[C@@H]2O[C@H](CO)[C@@H](O)[C@H](O)[C@@H]2O[C@H]2C[C@](C)(N)[C@H](O)[C@H](C)O2)Oc2ccc(cc2Cl)[C@H]1O`
5.98

Tell me its max response on KB-3-1: `CC(C)(C)[N+]([O-])=Cc1ccc(S(=O)(=O)O)cc1S(=O)(=O)O`
9.38

Tell me its max response on KB-3-1: `CC(C)(O)CC[C@@H](O)[C@](C)(O)[C@H]1CC[C@@]2(O)C3=CC(=O)[C@@H]4C[C@@H](O)[C@@H](O)C[C@]4(C)[C@@H]3CC[C@]12C`
-6.66

Tell me its max response on KB-3-1: `CC(C)OC(=O)[C@H](C)N[P@](=O)(OC[C@H]1O[C@@H](n2ccc(=O)[nH]c2=O)[C@](C)(F)[C@H]1O)Oc1ccccc1`
1.17
